Organism: Cavia porcellus
Test: Negative inotropic activity in guinea pig left atrium
Format: functional
Details: Cardiac atrium
pEC50: −log10 of the molar value.
measuredParameter: pEC50

Before answering, review these 3 worked examples.
Please look up its pEC50: CO/N=C/c1c(Sc2ccccc2C(=O)OC)nc2sccn12 6.05

// pEC50 lookup, key: O=C(c1ccccn1)c1conc1-c1c(Cl)cccc1Cl 6.00

Which pEC50 value is on record for CC(C)(C)N(OC(=O)c1ccccc1)C(=O)C(F)(F)F ? 5.21

A = C[C@H]1CC(=O)[C@](C)(CC(=O)c2ccc(Cl)cc2)C(=O)C1
B = C=CCN(CC=C)S(=O)(=O)c1ccc(Cl)cc1
C = O=S(=O)(c1ccc(Br)cc1)N1CCCCCC1
D = CCOC1(c2ccc(Br)cc2)SC=C(C)n2c1noc2=O (stereo not drawn)
Highest pEC50 first, then in falling order down to the smallest. Answer by listing the labels in the order asked for. D, C, B, A
(D: 7.40, C: 6.44, B: 5.93, A: 5.12)
